Tested on: Plasmodium falciparum
Assay: Antimalarial activity against Plasmodium falciparum D6 assessed as inhibition of parasite growth
Type: functional, organism-based
pEC50: −log10 of the molar value.
READOUT TYPE: pEC50

1. N=C(N)c1ccc(NC(=O)Nc2ccc(Oc3ccccc3)cc2)cc1: 6.34

----------
System: Plasmodium falciparum
Assay: Antimalarial activity against chloroquine-resistant Plasmodium falciparum Dd2 assessed as growth inhibition
Assay type: functional, organism-based
pIC50: −log10 of the molar value.
READOUT TYPE: pIC50

1) O=C(Nc1ccc(Cl)c(C(F)(F)F)c1)Nc1cc(C(F)(F)F)ccc1Oc1ccc(Cl)cc1Cl: 7.38

----------
System: Plasmodium berghei
Test: Antimalarial activity against Plasmodium berghei infected CD-1 mouse assessed as survival beyond 8 days at 256 mg/kg, sc bid
Format: functional, organism-based
Parameters: dose 256 mg/kg
The source made the active and inactive calls. No cut-off for these calls is given here.
READOUT TYPE: Survival

1) O=C(Nc1cc(C(F)(F)F)ccc1Oc1ccc(Cl)cc1Cl)Nc1cccc2ccccc12: inactive
2) O=C(Nc1ccc2ccccc2c1)Nc1cc(C(F)(F)F)ccc1Oc1ccc(Cl)cc1Cl: inactive
3) O=C(Nc1ccc(Cl)c(Cl)c1)Nc1cc(Cl)ccc1Oc1ccc(Cl)cc1Cl: inactive
4) O=C(Nc1ccc(Cl)cc1)Nc1cc(Cl)ccc1Oc1ccc(Cl)cc1Cl: inactive

----------
System: Plasmodium falciparum
Assay: Antimalarial activity against Plasmodium falciparum 3D7 assessed as inhibition of parasite growth
Type: functional, organism-based
READOUT TYPE: EC50 (nM)

1) O=C(Nc1ccc2ccccc2c1)Nc1cc(C(F)(F)F)ccc1Oc1ccc(Cl)cc1Cl: 610
2) N#Cc1ccc(NC(=O)Nc2cc(C(F)(F)F)ccc2Oc2ccc(Cl)cc2Cl)cc1C(F)(F)F: 130
3) CC(C)(N)c1cc(Cl)ccc1Oc1ccc(Cl)cc1Cl: 7200
4) O=C(Nc1ccc([N+](=O)[O-])c(C(F)(F)F)c1)Nc1cc(C(F)(F)F)ccc1Oc1ccc(Cl)cc1Cl: 72
5) O=C(Nc1ccccc1)Nc1cc(Cl)ccc1Oc1ccc(Cl)cc1Cl: 730
6) NCc1cc(Cl)ccc1Oc1ccc(Cl)cc1Cl: 2300
7) COc1cc(Cl)ccc1Oc1ccc(Cl)cc1Cl: 100000
8) N#Cc1cc(Cl)ccc1Oc1ccc(Cl)cc1Cl: 20000
9) N#Cc1ccc(NC(=O)Nc2cc(C(F)(F)F)ccc2Oc2ccc(Cl)cc2Cl)cc1C#N: 81
10) NC(=O)Nc1ccc(Oc2ccc(Cl)cc2O)c(Cl)c1: 100000
11) NC(=O)c1cc(Cl)ccc1Oc1ccc(Cl)cc1Cl: 73000
12) O=C(Nc1ccc(F)c(C(F)(F)F)c1)Nc1cc(C(F)(F)F)ccc1Oc1ccc(Cl)cc1Cl: 130
13) O=C(Nc1ccc(Cl)c(Cl)c1)Nc1cc(Cl)ccc1Oc1ccc(Cl)cc1Cl: 1900
14) O=C(Nc1cc(C(F)(F)F)ccc1Oc1ccc(Cl)cc1Cl)Nc1cccc2ccccc12: 1200
15) Nc1cc(Cl)ccc1Oc1ccc(Cl)cc1Cl: 52000
16) Nc1ccc(NC(=O)Nc2cc(C(F)(F)F)ccc2Oc2ccc(Cl)cc2Cl)cc1C(F)(F)F: 1500
17) O=C(Nc1ccc(Oc2ccc(Cl)cc2O)c(Cl)c1)N1CCOCC1: 100000
18) NC(=O)Nc1cc(Cl)ccc1Oc1ccc(Cl)cc1Cl: 18000
19) CC(=O)Nc1cc(Cl)ccc1Oc1ccc(Cl)cc1Cl: 33000
20) O=C(Nc1ccc(Cl)c(C(F)(F)F)c1)Nc1cc(C(F)(F)F)ccc1Oc1ccc(Cl)cc1Cl: 37
21) COc1ccc(NC(=O)Nc2cc(C(F)(F)F)ccc2Oc2ccc(Cl)cc2Cl)cc1C(F)(F)F: 180
22) O=S(=O)(Nc1cc(Cl)ccc1Oc1ccc(Cl)cc1Cl)c1ccccc1: 4700
23) CS(=O)(=O)Nc1cc(Cl)ccc1Oc1ccc(Cl)cc1Cl: 38000
24) O=C(Nc1ccc(Cl)cc1)Nc1cc(Cl)ccc1Oc1ccc(Cl)cc1Cl: 2000
25) O=C(Nc1ccc(Cl)c(Cl)c1)Nc1cc(C(F)(F)F)ccc1Oc1ccc(Cl)cc1Cl: 200

Values from ChEMBL document CHEMBL2321705
